- protocol_summary: Plasma PK of 450 mg capsules in fasted and fed patients, dose expansion
- Assay type: in vivo, human
- condition_context: human, plasma, oral, 450 mg, 450 mg QD capsules, Dose Expansion-Fed; Geometric Mean (GeoCV %); read-out: Vz/F
property: Vd/F (L)
The reply should contain only the number, in L.

Exercise: Any idea what Vd/F was measured for "CN(C)C(=O)/C=C/CNCCOc1ccc(/C(=C(/CC(F)(F)F)c2ccccc2)c2ccc3[nH]nc(F)c3c2)cn1" ?
Key: 279

====

- protocol_summary: Plasma PK of H3B-6545 capsules in fasted patients, phase 1 dose escalation
- Type: in vivo, human
- condition_context: female, human, plasma, oral, 100 mg, Cycle 1 Day 15; 100 mg QD capsules, fasted patients; Geometric Mean (GeoCV %)
property: AUC(0-inf)
Kindly format the answer as number then unit.

Exercise: Any idea what AUC(0-inf) was measured for CN(C)C(=O)/C=C/CNCCOc1ccc(/C(=C(/CC(F)(F)F)c2ccccc2)c2ccc3[nH]nc(F)c3c2)cn1 [H3B-6545] ?
Key: 2.95 µg·h/mL

====

- protocol_summary: Plasma PK of H3B-6545 capsules in fasted patients, phase 1 dose escalation
- Format: in vivo, human
- condition_context: female, human, plasma, oral, 200 mg, Cycle 1 Day 15; 200 mg QD capsules, fasted patients; Geometric Mean (GeoCV %); read-out: Vss
property: Vd (L)
The reply should contain only the number, in L.

Exercise: Any idea what Vd was measured for CN(C)C(=O)/C=C/CNCCOc1ccc(/C(=C(/CC(F)(F)F)c2ccccc2)c2ccc3[nH]nc(F)c3c2)cn1 [H3B-6545] ?
Key: 456

====

- protocol_summary: Plasma PK of H3B-6545 capsules in fasted patients, phase 1 dose escalation
- Assay type: in vivo, human
- condition_context: female, human, plasma, oral, 200 mg, Cycle 1 Day 1; 200 mg QD capsules, fasted patients; Geometric Mean (GeoCV %); read-out: AUC0-t
property: AUC(0-t)

Exercise: Any idea what AUC(0-t) was measured for "CN(C)C(=O)/C=C/CNCCOc1ccc(/C(=C(/CC(F)(F)F)c2ccccc2)c2ccc3[nH]nc(F)c3c2)cn1" ?
Key: 4810 ng·h/mL

====

- protocol_summary: Plasma PK of H3B-6545 capsules in fasted patients, phase 1 dose escalation
- Assay type: in vivo, human
- condition_context: female, human, plasma, oral, 450 mg, Cycle 1 Day 15; 450 mg QD capsules, fasted patients; Geometric Mean (GeoCV %)
property: Cmax

Exercise: Any idea what Cmax was measured for "CN(C)C(=O)/C=C/CNCCOc1ccc(/C(=C(/CC(F)(F)F)c2ccccc2)c2ccc3[nH]nc(F)c3c2)cn1" ?
Key: 1420 ng/mL

====

- protocol_summary: Plasma PK of H3B-6545 capsules in fasted patients, phase 1 dose escalation
- Type: in vivo, human
- condition_context: female, human, plasma, oral, 100 mg, Cycle 1 Day 15; 100 mg QD capsules, fasted patients; Geometric Mean (GeoCV %); read-out: AUC0-t
property: AUC(0-t) (ng·h/mL)
The reply should contain only the number, in ng·h/mL.

Exercise: Any idea what AUC(0-t) was measured for "CN(C)C(=O)/C=C/CNCCOc1ccc(/C(=C(/CC(F)(F)F)c2ccccc2)c2ccc3[nH]nc(F)c3c2)cn1" ?
Key: 2590
